Each entry below carries its recorded pIC50.
# Tested on: KB200 cells over-expressing multiple drug resistant (MDR) gene
# MEASUREMENT DESCRIPTION: Inhibition of cell proliferation, xCelligence cell index
# Assay type: cell-based
# EXPERIMENTAL PARAMETERS: Homo sapiens, 72 hr post compound treatment, read-out: calculated IC50
pIC50: −log10 of the molar value. Counter-ions that a name gives are not always drawn.

COMPOUND	RELATIONAL OPERATOR	pIC50
CCc1ccc(Nc2nc(-c3c(C)nc4sccn34)cs2)cc1 [COMPOUND O, monohydrobromide]	=	8.01
CC(=O)O[C@H]1C(=O)[C@@]2(C)[C@H]([C@H](OC(=O)c3ccccc3)[C@]3(O)C[C@H](OC(=O)[C@H](O)[C@@H](NC(=O)c4ccccc4)c4ccccc4)C(C)=C1C3(C)C)[C@]1(OC(C)=O)CO[C@@H]1C[C@@H]2O [paclitaxel]	<	6.00
CC[C@]1(O)C[C@@H]2CN(CCc3c([nH]c4ccccc34)[C@@](C(=O)OC)(c3cc4c(cc3OC)N(C)[C@H]3[C@@](O)(C(=O)OC)[C@H](OC(C)=O)[C@]5(CC)C=CCN6CC[C@]43[C@@H]65)C2)C1 [vinblastine, reference compound]	=	6.87
